Tested on: MDA-MB-435
Measurement notes: NCI tumour cell line growth inhibition, 48 h
Active and inactive are the calls of the source. Rule as the data show it: active = GI50 up to about 1.1 µM and inactive = higher.
Endpoint label: GI50

(Q) Which GI50 value belongs to `S=C(S)NCCCn1ccnc1` ?
(A) > 100 µM (inactive)

(Q) Query `Cc1cc2ccc(N)nc2nc1O` next
(A) > 100 µM (inactive)

(Q) Query O=C1/C(=C/C=C/c2ccccc2)N=C(c2ccccc2)N1C1Nc2cc3c(cc2S1)NC(N1C(=O)/C(=C/C=C/c2ccccc2)N=C1c1ccccc1)S3 (centres undefined) next
(A) 31.9 µM (inactive)

(Q) Query `Nc1nccc(NCC2(CO)CCC2)n1` next
(A) > 100 µM (inactive)

(Q) Query O=CN(CCN1CCCC1)C1CCc2cc(Cl)c(Cl)cc2C1 (centres undefined) next
(A) 15 µM (inactive)

(Q) Query `COc1cc(-c2c[nH]c3ccccc23)nc(-c2c[nH]c3ccccc23)n1` next
(A) 5.77 µM (inactive)

(Q) Query `CCOC(=O)Cn1nc2ccc(Nc3c(C)[n+]([O-])c4cc(F)c(OCC)cc4[n+]3[O-])cc2n1` next
(A) > 100 µM (inactive)

(Q) Query `Clc1ccc(Cn2cc(/C=N/n3cnnc3)c3ccccc32)cc1` next
(A) 83.9 µM (inactive)

(Q) Query COC(=O)C1OC(O[C@H]2CC[C@]3(C)[C@H]4CC=C5[C@@H]6CC(C)(C)CC[C@]6(C(=O)OC)CC[C@@]5(C)[C@]4(C)CC[C@H]3C2(C)C)C(O)C(O)C1O (some centres undefined) next
(A) 16.5 µM (inactive)

###

Could you please report measured GI50 for the items listed next?
Tested on: MCF7
Measurement notes: NCI tumour cell line growth inhibition, 48 h
Calls of active or inactive are those of the source. Rule as the data show it: active = GI50 up to about 1.1 µM and inactive = higher.

(Q) Which GI50 value belongs to `CC(=O)OC[C@@H](OC(C)=O)[C@@H](OC(C)=O)[C@H]1OC[C@@H]2C[C@H]([C@H]1OC(C)=O)N(Cc1ccccc1)O2` ?
(A) > 100 µM (inactive)

(Q) Query `O=C(c1ccc(Cl)cc1)N(C(=S)OC12CC3CC(CC(C3)C1)C2)c1ccccc1` next
(A) 33.3 µM (inactive)

(Q) Query Cc1ncc([N+](=O)[O-])n1CC(O)Cn1cnc([N+](=O)[O-])n1 (stereo not drawn) next
(A) > 100 µM (inactive)

(Q) Query `O=C(N/N=C/c1ccc(Cl)cc1)c1ccccc1Nc1ccccc1C(=O)N/N=C/c1ccc(Cl)cc1` next
(A) > 100 µM (inactive)

(Q) Query `COc1cc(NS(C)(=O)=O)ccc1NCc1c[nH]c2ccc3ncccc3c12` next
(A) 19.4 µM (inactive)

(Q) Query O=C1/C(=C/C=C/c2ccccc2)N=C(c2ccccc2)N1C1Nc2cc3c(cc2S1)NC(N1C(=O)/C(=C/C=C/c2ccccc2)N=C1c1ccccc1)S3 (stereo not drawn) next
(A) 29.9 µM (inactive)

(Q) Query `CCOC(OCC)[C@H](N)[C@@H](O)[C@@H](O)[C@H]1COC(C)(C)O1` next
(A) > 100 µM (inactive)

(Q) Query `COc1ccc(/C=C2\Oc3cc(OC(C)=O)ccc3C2=O)cc1` next
(A) > 100 µM (inactive)

###

Test system: NCI-H23
Measurement notes: NCI tumour cell line growth inhibition, 48 h
Active and inactive are the calls of the source. No stated cut-off is given here; in the data, active = GI50 up to about 1.1 µM and inactive = higher.
Allowed answers: active, inactive

(Q) Check the results log: what was the call for `Cc1c2c(cc3c1C(=O)C(O)=C([C@@H](C)CO)C3=O)C(C)(C)CCC2` ?
(A) inactive

(Q) Query `COc1ccc(OC)c(CNc2ccc(O)c(C(=O)NCCc3ccc(F)cc3)c2)c1` next
(A) inactive

(Q) Query CCO/C=N/C1=C(C#N)C(c2ccc(Cl)cc2)c2c(-c3ccccc3)nn(-c3ccccc3)c2O1 (stereo not given) next
(A) inactive

(Q) Query COc1ccc(NC(=O)CC2SC(Nc3ccc(Cl)cc3C)=NC2=O)c([N+](=O)[O-])c1 (stereo not given) next
(A) inactive

(Q) Query CCCCN1C(=O)CC2[C@@H]3CCc4cc(OC)ccc4C3CC[C@]2(C)C1=O (stereo not given in full) next
(A) inactive

(Q) Query `O=C(NCCCNC(=O)c1ccc2c(O)c(O)ccc2c1)c1ccc2c(O)c(O)ccc2c1` next
(A) inactive

(Q) Query CSCCC(N)C(=O)NCCNc1ccc(NCCNC(=O)C(N)CCSC)c2c1C(=O)c1ccccc1C2=O (stereo not given) next
(A) active

(Q) Query `Cc1nc2c(o1)/C(=N\c1ccccc1)c1ccccc1C2=O` next
(A) inactive

(Q) Query `C(/C=N/N=C1NCCCN1)=N\N=C1NCCCN1` next
(A) inactive

(Q) Query `CCCNc1ncnc2c1cnn2C` next
(A) inactive

Data origin, for the record: ChEMBL document CHEMBL1201862
